testTarget: HLA-B*53:01
assayDetails: IEDB peptide-MHC binding, purified MHC/competitive/radioactivity; bounds were set here for any values at or beyond the usual limits of such assays
conditions: source organism: Bordetella pertussis
pIC50: −log10 of the molar value.
# pIC50 per entry
measureName: pIC50

* FDTMLGFAI | 5.54
* LSDAGHEHD | 4.44
* NPQTQLSNI | 4.63
